Can you tell me pIC50 for the items I'm about to list?
- System: KRAS patient-derived spheroids with HUVEC/MSC, viability;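 also: spheroids exposed to agents for seven days before readout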
- method.summary: Anticancer human tumor 941728-121-R-J1-PDC patient-derived lung adenocarcinoma cell line growth inhibition [KRAS2]
- condition.details: curve of first compound; second compound 0.1 µM
pIC50: −log10 of the molar value.

Here are 3 compounds together with their reported answers.
[[record]]
compound = "CC(=O)OC12COC1CC(O)C1(C)C(=O)C(O)C3=C(C)C(OC(=O)C(O)C(NC(=O)OC(C)(C)C)c4ccccc4)CC(O)(C(OC(=O)c4ccccc4)C21)C3(C)C (centres undefined) + C=CC(=O)N1CCN(c2nc(=O)n(-c3c(C)ccnc3C(C)C)c3nc(-c4c(O)cccc4F)c(F)cc23)C(C)C1"
experimental_result = "> 8.00"

[[record]]
compound = "CC(=O)OC12COC1CC(O)C1(C)C(=O)C(O)C3=C(C)C(OC(=O)C(O)C(NC(=O)OC(C)(C)C)c4ccccc4)CC(O)(C(OC(=O)c4ccccc4)C21)C3(C)C (centres undefined) + C=CC(=O)N1CCN(c2nc(OCC3CCCN3C)nc3c2CCN(c2cccc4cccc(C)c24)C3)CC1CC#N"
experimental_result = "> 8.00"

[[record]]
compound = "CC(=O)Nc1cccc(-n2c(=O)n(C3CC3)c(=O)c3c(Nc4ccc(I)cc4F)n(C)c(=O)c(C)c32)c1 + C=CC(=O)N1CCN(c2nc(=O)n(-c3c(C)ccnc3C(C)C)c3nc(-c4c(O)cccc4F)c(F)cc23)C(C)C1"
experimental_result = "> 10.00"


As a next step, examine the compound that follows.
Prompt: Dear colleague, I am looking for the recorded pIC50 of the following compound: CC1(C)CCC(CN2CCN(c3ccc(C(=O)NS(=O)(=O)c4ccc(NCC5CCOCC5)c([N+](=O)[O-])c4)c(Oc4cnc5[nH]ccc5c4)c3)CC2)=C(c2ccc(Cl)cc2)C1 + C=CC(=O)N1CCN(c2nc(OCC3CCCN3C)nc3c2CCN(c2cccc4cccc(C)c24)C3)CC1CC#N
Completion: > 7.50
